molecular target: human CA-XII (Homo sapiens, UniProt O43570); construct: purchased Creative BioMart CA12-261H; assay: Surface Plasmon Resonance (SPR) binding kinetics to recombinant human CA-XII (Biacore 8K, single-cycle kinetics, 1:1 binding model); conditions: Chelated Metal: Lu-175, 25° C., pH 7.4, read-out: CAXII KD
Sequence (O43570 25-354): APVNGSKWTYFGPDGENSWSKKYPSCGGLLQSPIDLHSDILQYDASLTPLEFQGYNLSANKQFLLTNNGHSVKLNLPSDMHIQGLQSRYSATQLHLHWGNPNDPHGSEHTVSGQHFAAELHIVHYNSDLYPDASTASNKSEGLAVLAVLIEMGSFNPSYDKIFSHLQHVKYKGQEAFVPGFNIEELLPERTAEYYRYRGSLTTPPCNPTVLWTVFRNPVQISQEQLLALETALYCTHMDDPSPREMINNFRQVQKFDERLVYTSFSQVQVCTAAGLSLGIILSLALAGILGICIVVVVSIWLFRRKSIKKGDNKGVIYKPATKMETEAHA
pKd: −log10 of the molar value.
A collection of molecules and their measured pKd

CC(CCC(=O)N[C@@H](CC(=O)N[C@@H](CC(=O)N[C@@H](CCCCn1cc(C23CCC(C(=O)Nc4nnc(S(N)(=O)=O)s4)(CC2)C3)nn1)C(=O)N1CC(NC(=O)CN2CCN(CC(=O)O)CCN(CC(=O)O)CCN(CC(=O)O)CC2)C1)C(=O)O)C(=O)O)(c1ccc(O)cc1)c1ccc(O)cc1.[Lu+3] ... > 9.00
CC(CCCC(=O)N1CCC(C(N)=O)(C(=O)NCC(=O)N2CCN(C(=O)CCOCCOCCNC(=O)CN3CCN(CC(=O)O)CCN(CC(=O)O)CCN(CC(=O)O)CC3)C[C@@H]2C(=O)NCCn2cc(C34CC(C(=O)Nc5nnc(S(N)(=O)=O)s5)(C3)C4)nn2)CC1)(c1ccc(O)cc1)c1ccc(O)cc1.[Lu+3] ... < 8.00

Turning to the following molecule.
Lab note: molecule CC(CCC(=O)N[C@@H](CC(=O)N[C@@H](CCC(=O)N1CCN(C(=O)CN2CCN(CC(=O)O)CCN(CC(=O)O)CCN(CC(=O)O)CC2)C[C@@H]1C(=O)NCCn1cc(C23CC(C(=O)Nc4nnc(S(N)(=O)=O)s4)(C2)C3)nn1)C(=O)O)C(=O)O)(c1ccc(O)cc1)c1ccc(O)cc1.[Lu+3] tested on human CA-XII (Homo sapiens, UniProt O43570); recorded pKd was < 8.00

Taken from patent US20260325685A1.
